Source listed as the supplement of paper PMC10065799.

EXPERIMENTAL_TARGET: MERTK (UniProt Q12866)
Sequence (Q12866 whole entry, looked up): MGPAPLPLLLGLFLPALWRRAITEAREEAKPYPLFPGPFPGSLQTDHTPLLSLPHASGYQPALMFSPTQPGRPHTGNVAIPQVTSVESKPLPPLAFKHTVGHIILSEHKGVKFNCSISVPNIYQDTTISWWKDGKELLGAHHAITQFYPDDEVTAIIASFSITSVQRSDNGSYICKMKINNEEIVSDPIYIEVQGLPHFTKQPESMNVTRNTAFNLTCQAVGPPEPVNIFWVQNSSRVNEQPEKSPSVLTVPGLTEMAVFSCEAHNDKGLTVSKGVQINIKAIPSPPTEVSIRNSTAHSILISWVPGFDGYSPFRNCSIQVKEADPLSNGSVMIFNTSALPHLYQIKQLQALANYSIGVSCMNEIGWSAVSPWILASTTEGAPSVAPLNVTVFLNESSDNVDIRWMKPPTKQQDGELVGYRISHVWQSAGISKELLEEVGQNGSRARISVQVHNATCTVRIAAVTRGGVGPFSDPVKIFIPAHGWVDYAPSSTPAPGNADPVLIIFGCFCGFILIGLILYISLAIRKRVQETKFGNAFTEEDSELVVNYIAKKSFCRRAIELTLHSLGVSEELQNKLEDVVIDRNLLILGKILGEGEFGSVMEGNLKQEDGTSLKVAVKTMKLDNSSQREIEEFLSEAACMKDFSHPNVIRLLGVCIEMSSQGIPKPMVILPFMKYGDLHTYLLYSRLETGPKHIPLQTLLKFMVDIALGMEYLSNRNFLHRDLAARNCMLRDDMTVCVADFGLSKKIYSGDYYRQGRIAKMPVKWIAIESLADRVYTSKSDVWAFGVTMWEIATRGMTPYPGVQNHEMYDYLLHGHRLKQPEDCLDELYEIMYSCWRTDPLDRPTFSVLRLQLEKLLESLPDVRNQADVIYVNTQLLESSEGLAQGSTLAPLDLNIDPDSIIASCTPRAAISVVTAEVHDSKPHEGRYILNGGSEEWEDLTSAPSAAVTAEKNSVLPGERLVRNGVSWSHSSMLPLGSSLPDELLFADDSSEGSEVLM
PROCEDURE_TEXT: phosphorylation enrichment, bacterial display (enrichment ratio); higher = better substrate or ligand; peptides without Tyr show the background;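 also: 11-residue human phosphosite peptides and single-mutation variants displayed on the E. coli surface, counted by deep sequencing, each peptide's frequency after selection divided by its frequency in the unselected input library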;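 also: frequency after pTyr selection over input frequency; kinase dosed for 20-30% of maximal phosphorylation in three min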
Let's look at some sequences and their measured phosphorylation enrichment.
Number only, no unit.

// below: answered sequences
{"SEQUENCE_DATA": "SAPPSYEETVA [LITAF_Y23]", "METRIC_NAME": "phosphorylation enrichment", "MEAS_VALUE": 0.414}
{"SEQUENCE_DATA": "CNLDTYQKRLR [PLA2G2D_Y126_R121C]", "METRIC_NAME": "phosphorylation enrichment", "MEAS_VALUE": 0.434}
{"SEQUENCE_DATA": "QYQEKYKQMEQ [HCN4_Y531_V534M]", "METRIC_NAME": "phosphorylation enrichment", "MEAS_VALUE": 0.287}
{"SEQUENCE_DATA": "GEDEPYAEPFA [APBA1_Y183_S184A_YF]", "METRIC_NAME": "phosphorylation enrichment", "MEAS_VALUE": 0.547}
{"SEQUENCE_DATA": "PSSNLYFRCLT [CNGA3_Y168_W171C_YF]", "METRIC_NAME": "phosphorylation enrichment", "MEAS_VALUE": 0.808}
{"SEQUENCE_DATA": "KLGDVYVNDAF [PGK1_Y161]", "METRIC_NAME": "phosphorylation enrichment", "MEAS_VALUE": 0.395}

// query Endpoint output: phosphorylation enrichment of GGKFSYLKVGH [GRM3_Y480_YF] . Value?
// result 0.463

// query Endpoint output: phosphorylation enrichment of SVTCTNSPALN [TP53_Y126_Y126N] . Value?
// result 0.487

// query Endpoint output: phosphorylation enrichment of PDMHSYMVRYN [GRIN2D_Y732] . Value?
// result 0.616

// query Endpoint output: phosphorylation enrichment of GKFRMYVAVWT [F13A1_Y161] . Value?
// result 0.357

// query Endpoint output: phosphorylation enrichment of KLLLKYSFHDV [RNF213_Y4141] . Value?
// result 0.4

// query Endpoint output: phosphorylation enrichment of EDNPEYMRLRN [ADD2_Y31_D28N] . Value?
// result 0.408

// query Endpoint output: phosphorylation enrichment of VPTSKYRGGGG [HBA1_Y141_L137P] . Value?
// result 0.392

// query Endpoint output: phosphorylation enrichment of MARDISRASYY [ALK_Y1278_Y1278S] . Value?
// result 0.453

// query Endpoint output: phosphorylation enrichment of ESSKAYERDLS [TTC37_Y1074_A1077D] . Value?
// result 0.432

// query Endpoint output: phosphorylation enrichment of SRDDDYETIAM [NPY1R_Y347] . Value?
// result 0.5

// query Endpoint output: phosphorylation enrichment of EERKTYVNTTL [TEK_Y1102] . Value?
// result 0.498

// query Endpoint output: phosphorylation enrichment of KKARAYRPGIE [FLNA_Y287_G288R] . Value?
// result 0.371

// query Endpoint output: phosphorylation enrichment of PLLEYYWDIFT [CDAN1_Y713_R714W] . Value?
// result 1.02

// query Endpoint output: phosphorylation enrichment of PLRANYLIARV [HLCS_Y635_D634N] . Value?
// result 0.716

// query Endpoint output: phosphorylation enrichment of TYGVVYKARNK [CDK2_Y19] . Value?
// result 0.41

// query Endpoint output: phosphorylation enrichment of VSYDEYRYRSF [CFTR_Y515_V520F] . Value?
// result 0.522

// query Endpoint output: phosphorylation enrichment of DEDYLCREELA [POR_Y575_Y575C] . Value?
// result 0.676
